Reported TGI by item:
Test system: NCI-H23 lung
Experiment notes: NCI tumour cell line growth inhibition, 48 h

| Compound | TGI |
| --- | --- |
| COc1ccc(-c2oc(=O)ccc2-c2cc(OC)c(OC)c(OC)c2)cc1O | > 100 µM |
| CC(C)[O-].CC(C)[O-].O=C1C=C([O-])C(=O)c2ccccc21.O=C1C=C([O-])C(=O)c2ccccc21.[Ti+4] | > 79.3 µM |
| Cc1c(CCN2CCOCC2)c(N2CCOCC2)n2c(nc3ccccc32)c1C#N | > 10 µM |
| COc1cc2ncn(-c3cc(O[C@@H](C)c4ccccc4Cl)c(C(N)=O)s3)c2cc1OC | > 25 µM |
| CC1=C(C(=O)Nc2ccc(Cl)c(Cl)c2)C(c2cccc(Cl)c2)NC(=O)N1 (stereo not given) | 28.5 µM |
| C=C1C(=O)O[C@H]2[C@H]1CC/C(COC(=O)c1cc3ccccc3o1)=C\CC[C@@]1(C)O[C@@H]21 | 4.75 µM |
| CCn1c(SCC(=O)N/N=C/c2ccccc2)nc2ccccc2c1=O | > 100 µM |
| C/C(=N\n1c(Cc2ccccc2)n[nH]c1=O)c1ccccc1 | > 100 µM |
| Cc1cc(-c2nc3sccn3c2/C=N/N=C(N)N)c(C)s1 | 33.7 µM |
| O=C1C=CC(=O)C12CCc1ccccc12 | > 100 µM |

----------
Test system: COLO 205 colon
Experiment notes: NCI tumour cell line growth inhibition, 48 h
Observable: TGI

| Compound | Measured result |
| --- | --- |
| Cc1cccc2c1C(=O)[C@](C)([C@]1(C)Nc3cccc(C)c3C1=O)N2 | 44.6 µM |
| NC(=O)c1cc2ccc(O)cc2o/c1=N/NC(=O)c1ccccc1 | > 100 µM |
| COc1ccc(C2SCC(=O)N2NC(=O)c2ccncc2)cc1F (stereo not given) | > 100 µM |
| C[C@@H](O)[C@H](NC(=O)N[C@@H](CC(N)=O)c1nc([C@@H](N)CO)no1)C(=O)O | > 100 µM |
| C1CCCCC2(CCCCCCCCC3(CCC1)OCCO3)OCCO2 | > 100 µM |
| Nc1nc(Cl)c(/C=N\O)c(NCC2(CO)CCC2)n1 | > 100 µM |
| O=c1c2cc(-c3ccccc3)sc2nc2n1N=C(c1ccc(Cl)cc1)CS2 | > 100 µM |
| O=C1c2ccccc2C(=O)N1CC1S(=O)(=O)OCCOS1(=O)=O | > 100 µM |
| CCO/C=N\c1c(C#N)c(-c2ccc(Cl)cc2)cn1-c1ccc(C)cc1 | > 100 µM |
| Cn1nc(-c2ccccc2)c(C(=O)/C=C/c2ccc(Cl)cc2)c(N2CCCCC2)c1=O | 4.35 µM |

----------
System: SK-MEL-5 melanoma
Experiment notes: NCI tumour cell line growth inhibition, 48 h; in the data active = GI50 below about 0.43 µM; inactive = the rest
Possible outcomes: 1 = active, 0 = inactive

| Compound | Measured on | Class assignment |
| --- | --- | --- |
| COc1cc2c(cc1OC)-c1ccc3cc4c(cc3c1N(CCCn1ccnc1)C2)OCO4 | SK-MEL-5 melanoma | 0 |
| CC(=Nc1ccccc1)C1=C(O)C(Cc2ccc(O)cc2)NC1=O (stereo not given) | SK-MEL-5 melanoma | 1 |
| N#CC1=C(N)Oc2c(ccc3ccccc23)C1c1ccccc1 (stereo not given) | SK-MEL-5 melanoma | 1 |
| CC(C)[O-].CC(C)[O-].O=C1C=C([O-])C(=O)c2ccccc21.O=C1C=C([O-])C(=O)c2ccccc21.[Ti+4] | SK-MEL-5 melanoma | 0 |
| COc1ccc(/C(COc2ccc3c(=O)c(-c4ccccc4)coc3c2)=N\O)cc1 | SK-MEL-5 melanoma | 1 |
